Reported pIC50 values for a set of compounds
target: PTGER2 (EP2) (Homo sapiens, UniProt P43116); experiment: hEP2 b-arrestin assay (PathHunter HEK 293 PTGER2 b-arrestin cells); details: antagonistic activity, beta-arrestin assay; read-out: hEP2 b-arr IC50
Sequence (P43116 whole entry): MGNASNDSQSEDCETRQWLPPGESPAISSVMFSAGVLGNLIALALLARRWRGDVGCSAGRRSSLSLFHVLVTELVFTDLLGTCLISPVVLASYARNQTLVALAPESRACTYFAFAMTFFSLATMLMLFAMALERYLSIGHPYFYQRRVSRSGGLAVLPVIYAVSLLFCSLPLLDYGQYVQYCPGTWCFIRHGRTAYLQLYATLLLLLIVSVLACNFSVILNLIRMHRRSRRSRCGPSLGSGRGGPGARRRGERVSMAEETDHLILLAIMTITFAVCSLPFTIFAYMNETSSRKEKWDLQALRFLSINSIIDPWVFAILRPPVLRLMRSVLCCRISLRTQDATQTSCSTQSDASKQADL
pIC50: −log10 of the molar value.
OBSERVATION_TYPE: pIC50

| MOLECULE | TEST_RESULT |
| --- | --- |
| CCc1cc(-c2cc(NCCc3c(C)sc4c(C)cc(F)cc34)ncn2)cc(C)c1CC(=O)O | 7.33 |
| CCOc1cc(-c2cc(NCCc3c(C)sc4c(C)cc(F)cc34)ncn2)sc1-c1nnn[nH]1 | 8.22 |
| CSc1cc(-c2cc(NCCc3c(C)sc4c(C)cc(F)cc34)ncn2)ccc1C(=O)O | 8.30 |
| CCOc1cc(-c2cc(NCCc3c(C)sc4c(C)cc(F)cc34)ncn2)sc1CC(=O)O | 7.34 |
| CCOc1cc(-c2cc(NCCc3c(C#N)sc4c(OC)cccc34)ncn2)ccc1CC(=O)O | 6.30 |
| Cc1cc(-c2cc(NCCc3c(C)oc4c(C)cc(Cl)cc34)ncn2)sc1C(=O)O | 7.96 |
| CCCc1cc(-c2cc(NCCc3c(C)sc4c(C)cc(F)cc34)ncn2)ccc1C(=O)NCCO | 8.10 |
| CCOc1cc(-c2cc(NCCc3c(C)sc4c(C)c(F)ccc34)ncn2)ccc1CC(=O)O | 7.38 |

* * *

Reported pIC50 values for a set of molecules
target: PTGER2 (EP2) (Homo sapiens, UniProt P43116); assay: hEP2 b-arrestin assay (PathHunter HEK 293 PTGER2 b-arrestin cells); settings: antagonistic activity, beta-arrestin assay; read-out: hEP2 b-arr IC50
pIC50: −log10 of the molar value.

| MOLECULE | SYSTEM_NAME | pIC50 |
| --- | --- | --- |
| Cc1sc2c(C)cc(F)cc2c1CCNc1cc(-c2ccc(C(=O)O)c(CC(C)C)c2)ncn1 [Example 94] | PTGER2 (EP2) (Homo sapiens, UniProt P43116) | 7.35 |
| COc1cc(Cl)cc2c(CCNc3cc(-c4cc(F)c(C(=O)O)c(OC5CCC5)c4)ncn3)c(C)oc12 [Example 151] | PTGER2 (EP2) (Homo sapiens, UniProt P43116) | 7.22 |
| COc1ccc(F)c2c(CCNc3cc(-c4ccc(C(=O)O)c(OC5CCC5)c4)ncn3)c(C)sc12 [Example 134] | PTGER2 (EP2) (Homo sapiens, UniProt P43116) | 7.57 |
| CCOc1cc(-c2cc(NCCc3c(C)sc4c(C)cc(F)cc34)ncn2)ccc1-c1nnn[nH]1 [Example 142] | PTGER2 (EP2) (Homo sapiens, UniProt P43116) | 7.92 |
| CCOc1cc(-c2cc(NCCc3c(C)sc4c(OC)ccc(F)c34)ncn2)ccc1OCC(=O)O [Example 117] | PTGER2 (EP2) (Homo sapiens, UniProt P43116) | 7.70 |
| COc1ccc(Cl)c2c(CCNc3cc(-c4ccc(C(=O)O)c(OC(C)C)c4)ncn3)c(C)sc12 [Example 98] | PTGER2 (EP2) (Homo sapiens, UniProt P43116) | 7.26 |
| COc1ccc(Cl)c2c(CCNc3cc(-c4cc(C)c(C(=O)O)s4)ncn3)c(C)sc12 [Example 5] | PTGER2 (EP2) (Homo sapiens, UniProt P43116) | 6.97 |
| COc1cc(-c2cc(NCCc3c(C)sc4c(OC)ccc(Cl)c34)ncn2)ccc1C(=O)O [Example 40] | PTGER2 (EP2) (Homo sapiens, UniProt P43116) | 7.32 |

* * *

target: EP4 receptor (Homo sapiens, UniProt P35408); construct: BT549 breast cancer cells, express high endogenous EP4 levels and very low EP2 levels; assay: hEP4 cAMP assay (BT549 breast cancer cells, HTRF cAMP, PGE2 stimulation); settings: antagonistic activity, PGE2 6 nM (EC80)
Sequence (P35408 whole entry): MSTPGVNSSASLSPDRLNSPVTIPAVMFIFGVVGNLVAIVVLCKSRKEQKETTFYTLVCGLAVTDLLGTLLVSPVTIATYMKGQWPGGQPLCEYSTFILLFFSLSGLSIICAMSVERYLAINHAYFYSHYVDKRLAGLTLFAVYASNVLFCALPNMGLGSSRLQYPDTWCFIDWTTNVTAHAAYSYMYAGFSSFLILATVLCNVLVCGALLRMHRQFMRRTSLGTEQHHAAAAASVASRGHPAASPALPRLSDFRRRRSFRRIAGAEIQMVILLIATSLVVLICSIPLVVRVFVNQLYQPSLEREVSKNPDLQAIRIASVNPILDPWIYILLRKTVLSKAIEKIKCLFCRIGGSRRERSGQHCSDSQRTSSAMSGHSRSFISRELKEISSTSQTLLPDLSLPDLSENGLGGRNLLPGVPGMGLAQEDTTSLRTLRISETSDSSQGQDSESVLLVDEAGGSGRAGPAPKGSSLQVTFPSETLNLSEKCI

| COMPOUND | SYSTEM_NAME | IC50 [nM] |
| --- | --- | --- |
| Cc1sc2c(C)cc(F)cc2c1CCNc1cc(-c2ccc(C(=O)O)c(OC3CCC3)c2)ncn1 [Example 138] | EP4 receptor (Homo sapiens, UniProt P35408) | 478 |
| CCCc1cc(-c2cc(NCCc3c(C)sc4c(C)cc(F)cc34)ncn2)ccc1C(=O)O [Example 45] | EP4 receptor (Homo sapiens, UniProt P35408) | 147 |
| Cc1oc2c(C)cc(F)cc2c1CCNc1cc(-c2ccc(C(=O)O)c(OC3CCC3)c2)ncn1 [Example 140] | EP4 receptor (Homo sapiens, UniProt P35408) | 580 |
| CCOc1cc(-c2cc(NCCc3c(C)oc4c(OC)cc(Cl)cc34)ncn2)sc1C(=O)O [Example 38] | EP4 receptor (Homo sapiens, UniProt P35408) | 80 |

* * *

Reported IC50 values for a set of compounds
target: EP4 receptor (Homo sapiens); construct: BT549 breast cancer cells, express high endogenous EP4 levels and very low EP2 levels; host or cells: BT549 breast cancer cells; experiment: hEP4 cAMP assay (BT549 breast cancer cells, HTRF cAMP, PGE2 stimulation); format: cell-based; conditions: antagonistic activity, PGE2 6 nM (EC80)
OBSERVATION_TYPE: IC50 (nM)

| MOLECULE | TEST_RESULT |
| --- | --- |
| Cc1sc2c(C)cc(F)cc2c1CCNc1cc(-c2ccc(-c3nc(=O)[nH]o3)cc2)ncn1 | 91 |
| CCOc1cc(-c2cc(NCCc3c(C)oc4c(Cl)cccc34)ncn2)ccc1CC(=O)O | 264 |
| CCOc1cc(-c2cc(NCCc3c(C)oc4c(OC)cc(Cl)cc34)ncn2)ccc1CC(=O)O | 247 |
| CCOc1cc(-c2cc(NCCc3c(C)oc4c(C)cc(F)cc34)ncn2)ccc1OCC(=O)O | 310 |
| CCOc1cc(-c2cc(NCCc3c(C#N)sc4c(C)cc(F)cc34)ncn2)ccc1C(=O)O | 44 |
| CCCc1cc(-c2cc(NCCc3c(C#N)sc4c(C)cc(F)cc34)ncn2)ccc1CC(=O)O | 13 |
| CSc1cc(-c2cc(NCCc3c(C)sc4c(C)cccc34)ncn2)cc(F)c1C(=O)O | 989 |
| CCOc1cc(-c2cc(NCCc3c(C)sc4c(C)cc(F)cc34)ncn2)ccc1CC(=O)O | 296 |
| COc1cc(F)c(F)c2c(CCNc3cc(-c4ccc(C(=O)O)c(OC5CC5)c4)ncn3)c(C)oc12 | 258 |
| CCOc1nc(-c2cc(NCCc3c(C)sc4c(C)cc(F)cc34)ncn2)sc1-c1noc(=O)[nH]1 | 51 |
| CCOc1cc(-c2cc(NCCc3c(C#N)sc4c(C)cc(F)cc34)ncn2)ccc1CC(=O)O | 30 |
| CCOc1cc(-c2cc(NCCc3c(C)sc4c(C)cc(F)cc34)ncn2)ccc1NC(=O)C(=O)O | 271 |
| CCOc1cc(-c2cc(NCCc3c(C#N)sc4c(OC)cccc34)ncn2)sc1C(=O)O | 4 |
| Cc1sc2c(C)cccc2c1CCNc1cc(-c2ccc3cc(C(=O)O)oc3c2)ncn1 | 130 |
| CCCSc1cc(-c2cc(NCCc3c(C)sc4ccccc34)ncn2)ccc1C(=O)O | 695 |
| CCOc1cc(-c2cc(NCCc3c(C)sc4c(OC)ccc(Cl)c34)ncn2)ccc1C(=O)O | 220 |
| CCCOc1cc(-c2cc(NCCc3c(C)sc4c(OC)ccc(Cl)c34)ncn2)ccc1C(=O)O | 482 |
| COc1cc(-c2cc(NCCc3c(C#N)sc4c(C)cc(F)cc34)ncn2)ccc1CC(=O)O | 2990 |
| CCc1cc(-c2cc(NCCc3c(C)sc4c(C)cc(F)cc34)ncn2)cc(C)c1CC(=O)O | 71 |
| Cc1sc2c(C)cccc2c1CCNc1cc(-c2ccc(C(=O)O)c(SC3CCC3)c2)ncn1 | 980 |
| COc1ccc(Cl)c2c(CCNc3cc(-c4ccc(C(=O)O)c(SC)c4)ncn3)c(C)sc12 | 134 |
| CCOc1cc(-c2cc(NCCc3c(C)sc4c(C)cccc34)ncn2)ccc1OCC(=O)O | 136 |
| CCOc1cc(-c2cc(NCCc3c(C)sc4c(Cl)ccc(Cl)c34)ncn2)ccc1C(=O)O | 445 |
| CCOc1cc(-c2cc(NCCc3c(C)sc4c(C)cc(F)cc34)ncn2)sc1-c1nnn[nH]1 | 20 |
| CCOc1cc(-c2cc(NCCc3c(C)oc4c(C)cc(Cl)cc34)ncn2)ccc1C(=O)O | 546 |
| CSc1cc(-c2cc(NCCc3c(C#N)sc4c(C)cc(F)cc34)ncn2)ccc1C(=O)O | 20 |
| Cc1sc2c(C)cc(F)cc2c1CCNc1cc(-c2ccc(C(=O)O)c(OC(F)F)c2)ncn1 | 60 |
| CCOc1cc(-c2cc(NCCc3c(C)sc4c(C)cc(F)cc34)ncn2)ccc1C(=O)O | 186 |
| CCOc1cc(-c2cc(NCCc3c(C)sc4c(C)cc(F)cc34)ncn2)sc1/C=C/C(=O)O | 42 |
| Cc1sc2c(C)cc(F)cc2c1CCNc1cc(-c2ccc(CC(=O)O)c(OC3CC3)c2)ncn1 | 100 |
| COc1cc(-c2cc(NCCc3c(C)sc4c(C)ccc(F)c34)ncn2)cc(C)c1C(=O)O | 644 |
| CCOc1cc(-c2cc(NCCc3c(C)oc4c(OC)ccc(F)c34)ncn2)sc1C(=O)O | 22 |
